test: folding stability dG unfold (combined trypsin and chymotrypsin); higher = more stable
The following sequences are listed with their measured folding stability dG unfold values.
Your answer should be a number followed by the unit of measure.

Recorded folding stability dG unfold, per entry:
[[record]]
sequence_data = "SAGGSGEVRPLELEFTLPNGAKIKITLHVYPDGTVKVEARIEFGGEYLELRFEFEGEKVPLDFPDFGSAGGS [r16_523_TrMRF]"
value_reported = "3.73 kcal/mol"

[[record]]
sequence_data = "SAGGSAGGDRIKIRFPDYRYEIEIPPGIESITTIQFHKDGWFTLTIPGNGQQIKIPIPPPDDDPSAGGSAGG [r6_370_TrROS]"
value_reported = "1.51 kcal/mol"

[[record]]
sequence_data = "SAGGSAGGSAGSSVKTYTGKGKKITITKLDNGTYIVTTPDKTSTYPPSVSEEEVIKKALESAGGSAGGSAGG [r17_272_JUSTAS]"
value_reported = "0.282 kcal/mol"

[[record]]
sequence_data = "SAMIEIPFSPDTPVEERLAMIKEAIEAAKAAGIEPKEITLIVPPDREDILEAVEEAGIPKERVKIKDQPSAG [r14_589_JUSTAS]"
value_reported = "1.24 kcal/mol"

[[record]]
sequence_data = "SAGGSAGGSAMLTIPVTTPEEARELAEELLRRGYLRVEPTEDGDVTVIHPDGVPTRILVPTESAGGSAGGSA [r18_126_TrMRF]"
value_reported = "0.558 kcal/mol"

[[record]]
sequence_data = "SAGGMKKEKVKITIVVPVEDAEKLREALEKLGFKVVEEKENEDGLLTLTVEVDGKKIEIKIVKKEELSAGGS [r16_170_TrROS_Hall]"
value_reported = "1.05 kcal/mol"


Prompt: Item SAGGSAGGNKPIMVRIKIWHDNGKTRRFFVQIPEGFDDPSELASELAKEFNKQYPNYRIEVEPFSAGGSAGG [r6_132_TrROS] : provide folding stability dG unfold
Completion: 2.78 kcal/mol

----------
experiment: folding stability dG unfold from chymotrypsin proteolysis; higher = more stable
Classification field: fulfilled = folding stability dG unfold at or over 1 kcal/mol; not fulfilled = folding stability dG unfold under 1 kcal/mol.

[[record]]
sequence_data = "SAGGSAGGSAPLIELRPPEEPLFLPLENLLGRGIPLEELAKLLEKLTGRKVEPVKPGYIRTGSAGGSAGGSA [r18_7_TrMRF]"
discrete_label = "not fulfilled"

[[record]]
sequence_data = "SAGGSAKKTLKIKVKTPKGGLKTIEIPDSVKKIDIIPGKDYVKIIIYNPKTKKKIELPPFKVIEISSAGGSA [r15_133_TrMRF]"
discrete_label = "fulfilled"

[[record]]
sequence_data = "SAGGSAGGSAGGNVITVFIPNYQIITIHLSPEPGRIPIEVYPPNGKKEEWPIPDIKELIQSAGGSAGGSAGG [r7_769_TrROS]"
discrete_label = "not fulfilled"

[[record]]
sequence_data = "SAGGSAGGSAGGDEVLVFETETVELEVEVRTLNEDGEETTEKEKVTLTVTRVVRLPPGLLSAGGSAGGSAGG [r7_926_TrROS_Hall]"
discrete_label = "fulfilled"

[[record]]
sequence_data = "SAGGSEEKVFEFEVVEVTSVEVKEDGTVTIEVTVRLENGLLLTVRVTFDLATNEVTIEVELRPLPESAGGSA [r2_321_TrROS_Hall]"
discrete_label = "fulfilled"


Could you now look at the following sequence, please?
Prompt: Hi team, for SAGGSAGEIEGEEAAKLVEDALRALDPNVRVEYEPLPGEKPLLLVRVYRVDPESGAETPLATLLIGSAGGSA [r15_682_TrMRF] , is the recorded folding stability dG unfold at or above 1 kcal/mol?
Completion: fulfilled

Origin of values: the supplement of paper PMC12764529
